test system: SNB-19 CNS; test: NCI-60 one-dose screen, 48 h; details: 10 µM unless noted
Compounds without any hit were thinned out: in the full panel of roughly 83,000, 20% have a hit. Activity calls are given as the source filed them. The calls were made as follows: active = growth percent below 10; inactive = the rest.
Lab note: assign the record to one of active, inactive

Below are worked cases with known answers.
- Oc1ccc(C2c3ccccc3Oc3ccccc32)c2cccnc12: inactive
- O=S(=O)(NCCCNc1nccc(-c2c(-c3cccc(F)c3)nc3sccn23)n1)c1cccc2ccccc12: inactive
- O=C(CCN1CCCC1)c1ccc([N+](=O)[O-])cc1: inactive
- CC(Sc1nc2sc3c(c2c(=O)n1-c1ccc(Cl)cc1)CCCC3)C(=O)Nc1nc(-c2ccc(Br)cc2)cs1 (centres undefined): inactive
- CCCCCN1C=C/C(=C\C(=O)N(C)c2ccc(OC(F)(F)F)cc2)c2ccccc21: inactive
- CCCCCC(=O)Oc1ccc(/C(=C(\C)c2ccccc2)c2ccc(OCCN3CCCCC3)cc2)cc1: inactive
- Cc1ccc(-n2c3c(c(-c4ccccc4)c2-c2ccccc2)C2=NCCN2C=N3)cc1: inactive
- CCc1c(Cl)nc(N)nc1Nc1ccc(C)c(C)c1: inactive
- O=c1ccc(-c2nc(N3CCOCC3)c3ccccc3n2)c[nH]1: inactive
- COc1cc(-c2n/c(=C\c3c(O)[nH]c4ccc(Cl)cc34)cc3c2=Nc2ccccc2-3)ccc1F: active

What call does the record list for "Cc1nn(-c2ccccc2)c(Cl)c1/C=C/C(=O)c1ccc(F)cc1" ?
inactive

What call does the record list for "N#C/C(=C\c1ccc([N+](=O)[O-])s1)c1nc2cc(Cl)ccc2s1" ?
inactive

What call does the record list for "COc1cccc(C(=O)NNc2nc(Cl)nc(N3CCN(C(c4ccccc4)c4ccccc4)CC3)n2)c1" ?
inactive

What call does the record list for "Cc1ccc(-c2[nH][nH]c(=O)c2-c2nc3ccccc3s2)cc1" ?
inactive
